Reference for the values: the supplement of paper PMC10567573

B1: TIA1 (parent)
chain: TYECRCIGEEKEMWNFGEKYARF

Variants of: B1
Experiment: protein stability index of a GFP-peptide fusion (GPS, HEK-293T) (PSI 1-6); higher = more stable;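 further: lentivirally expressed fusions sorted by FACS into six bins by GFP to DsRed ratio, PSI derived from sequencing read proportions per bin multiplied by bin number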
Conditions: c terminus: native
Lab note: compare protein stability index against 3. Equal or greater, write TRUE. Smaller, write FALSE.

Completed entries (count: 3):
E10A | FALSE
R22A | FALSE
F23W | FALSE

**Q:** Please tell me: is the variant N15Y at or over 3 in terms of protein stability index?
**A:** FALSE

**Q:** Please tell me: is the variant T1N at or over 3 in terms of protein stability index?
**A:** TRUE
